# targetOrSystem: Dual specificity tyrosine-phosphorylation-regulated kinase 1A (Homo sapiens, UniProt Q13627); also: in the data inactive means no Kd found up to 30 µM
Activity calls are given as the source filed them.
Write down the outcome that applies. Available outcomes: active, inactive

Below, 5 compounds whose answers are already recorded.
| compound | labelValue |
| --- | --- |
| Cc1ccc(-n2nc(C(C)(C)C)cc2NC(=O)NCc2cc(F)ccc2Oc2ccc3c(cnn3CCO)c2)cc1 [PEXMETINIB] | inactive |
| Cn1cc(-c2ccc3nnc(C(F)(F)c4ccc5ncccc5c4)n3n2)cn1 [JNJ-38877605] | inactive |
| COc1cc(CCc2cc(NC(=O)c3ccc(N4C[C@@H](C)N[C@@H](C)C4)cc3)n[nH]2)cc(OC)c1 [AZD-4547] | inactive |
| Cc1ccc(NC(=O)c2ccc(CN3CC[C@H](N(C)C)C3)c(C(F)(F)F)c2)cc1Nc1nccc(-c2cncnc2)n1 [BAFETINIB] | inactive |
| CC[C@@H]1C(=O)N(C)c2cnc(Nc3ccc(C(=O)N[C@H]4CC[C@H](N5CCN(CC6CC6)CC5)CC4)cc3OC)nc2N1C(C)C [VOLASERTIB] | inactive |

Query: GET /call?item= CN1CC[C@@H](c2c(O)cc(O)c3c(=O)cc(-c4ccccc4Cl)oc23)[C@@H]1CO returns the recorded outcome of this test.
Response: inactive

Query: Hi, do you know how CNC(=O)c1cc(Oc2ccc(NC(=O)Nc3ccc(Cl)c(C(F)(F)F)c3)c(F)c2)ccn1 [REGORAFENIB] came out in this test?
Response: inactive

Query: Name the outcome recorded for COc1ccc(-c2ccc3c(N4CCOC[C@@H]4C)nc(N4CCOC[C@@H]4C)nc3n2)cc1CO [AZD-8055] in the assay.
Response: inactive

Query: Hi, sorry to bother you, what did the test record for Cc1cc2c(F)c(Oc3ncnn4cc(OC[C@@H](C)OC(=O)[C@H](C)N)c(C)c34)ccc2[nH]1 [BRIVANIB ALANINATE] ?
Response: inactive

Query: What call does the record list for CN1CCC(COc2cnc(-c3cccc(Cn4nc(-c5cccc(C#N)c5)ccc4=O)c3)nc2)CC1 [TEPOTINIB] ?
Response: inactive

###

# targetOrSystem: Aurora kinase B (Homo sapiens); also: in the data inactive means no Kd found up to 30 µM
# Sequence (Q96GD4 whole entry): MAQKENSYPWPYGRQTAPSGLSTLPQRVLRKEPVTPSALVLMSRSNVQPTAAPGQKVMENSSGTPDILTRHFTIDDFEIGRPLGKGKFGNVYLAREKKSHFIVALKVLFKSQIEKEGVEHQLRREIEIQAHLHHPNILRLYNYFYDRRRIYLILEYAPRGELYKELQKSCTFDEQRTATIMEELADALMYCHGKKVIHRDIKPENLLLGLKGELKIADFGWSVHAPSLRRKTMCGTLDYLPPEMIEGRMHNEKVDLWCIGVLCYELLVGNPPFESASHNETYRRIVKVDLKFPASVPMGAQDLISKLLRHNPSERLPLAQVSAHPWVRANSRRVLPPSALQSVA
Calls of active or inactive are those of the source.
Classes to choose from: active, inactive

See these solved cases before continuing.
| compound | labelValue |
| --- | --- |
| Cn1ncc(Cl)c1-c1cc(C(=O)N[C@H](CN)Cc2cccc(F)c2)sc1Cl | inactive |
| CN1N=C(N)c2cn([C@@H]3O[C@H](COP(=O)(O)O)[C@@H](O)[C@H]3O)c3ncnc1c23 [TRICIRIBINE PHOSPHATE] | inactive |
| Cc1ccc(-n2nc(C(C)(C)C)cc2NC(=O)NCc2cc(F)ccc2Oc2ccc3c(cnn3CCO)c2)cc1 | inactive |
| Cc1c(F)cc(C(=O)NC2CC2)cc1-c1ccc(C(=O)NCC(C)(C)C)cn1 | inactive |
| COC(=O)[C@@]1(O)C[C@H]2O[C@]1(C)n1c3ccccc3c3c4c(c5c6ccccc6n2c5c31)C(=O)NC4 [K-252A] | active |
| COc1cc(N2CCC(N3CCN(C)CC3)CC2)ccc1Nc1ncnc(Nc2ccccc2S(=O)(=O)C(C)C)n1 | active |
| O=c1sn(-c2cccc3ccccc23)c(=O)n1Cc1ccccc1 | inactive |

Query: Given CN1CCC(COc2cnc(-c3cccc(Cn4nc(-c5cccc(C#N)c5)ccc4=O)c3)nc2)CC1 , state the outcome it received in this test.
Response: inactive
